# procedure-summary: MTT cytotoxicity assay
# test-conditions: human, A549 cells (human lung carcinoma)
measure: IC50 at 72 h

Field IC50 at 72 h (entry N[C@@H](Cc1ccc(B(O)O)cc1)C(=O)O [BPA, 4-borono-L-phenylalanine, reference compound] ) reads > 1 mM

* * *

# procedure-summary: MTT cytotoxicity assay
# test-conditions: human, MDA-MB-231 cells (human breast adenocarcinoma)
measure: IC50 at 72 h

Field IC50 at 72 h (entry N[C@@H](Cc1ccc(B(O)O)cc1)C(=O)O [BPA, 4-borono-L-phenylalanine, reference compound] ) reads > 1000 µM

* * *

# procedure-summary: MTT cytotoxicity assay
# test-conditions: mouse, B16 cells (mouse melanoma)
measure: IC50 at 72 h (µM)
Express your answer in µM, writing the number without its unit.

Field IC50 at 72 h (entry N[C@@H](Cc1ccc(B(O)O)cc1)C(=O)O [BPA, 4-borono-L-phenylalanine, reference compound] ) reads 910

Values from paper PMC11696430
